# target-entity: T1, SNTG1, Q9NSN8
# T1 sequence (Q9NSN8 52-150, limits assumed, looked up): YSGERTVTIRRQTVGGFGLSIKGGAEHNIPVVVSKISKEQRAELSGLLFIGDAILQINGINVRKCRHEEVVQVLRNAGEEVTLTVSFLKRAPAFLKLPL
# test-description: holdup assay
# Set-up: key: below the threshold = too weak to quantify, mostly under pKd 3.1 to 4
# condition: plain residues with an end cap or a label only (N-terminal biotin on a linker: ttds)
# maps each entry to its pKd
Enter the number alone.

Solved entries (count: 3):
KQVVPFSSSV [GDA, Q9Y2T3] :: 3.71
SRSRRRETAL [HPV33-E6, P06427] :: 3.62
DLDEEEDTHL [PODXL, O00592] :: 3.49

Entry SHSSKGETAV [FZD7, O75084] , pKd reported as 4.32

Recorded pKd (binder QRPYRRESEI [KCNJ12, Q14500] ): 3.82

// pKd lookup, binder = FVETQHQTQV [FAT3, Q8TDW7] , result: 4.02

Looking up KLVIKTETTV [RASSF6, Q6ZTQ3] , I found its pKd recorded as 4.16

Summary for this binder, SSIDLWETAL [SLC15A5, A6NIM6] : pKd is 5.41

Item: PSRDRKETSI [RALBP1, Q15311] | pKd: 3.76

Record GRLLGLETNV [ARHGEF26, Q96DR7] , field pKd: 4.95

// pKd lookup, binder = SGGKRKETLV [NET1, Q7Z628] , result: 3.83

The binder listed as PPRQRSETQV [HPV82-E6, Q9IR59] has a reported pKd of 3.99

The recorded pKd for NPDALPETLV [ARHGAP6, O43182] is 5.33
